- System: WT MEF EVs
- method_summary: Quantitative LC-MS/MS proteomics of EVs from ISRIB-treated WT MEF cultures
- Assay type: cell-based, mouse
- Set-up: key: YES = protein abundance effect similar to DYT/WT
- condition_details: EV protein abundance, WT + ISRIB vs WT, direction compared with DYT/WT

[
  {
    "molecule": "Psmd4 (protein, UniProt O35226 1-376, looked up) 26S proteasome non-ATPase …: MVLESTMVCVDNSEYMRNGDFLPTRLQAQQDAVNIVCHSKTRSNPENNVGLITLANDCEVLTTLTPDTGRILSKLHTVQPKGKITFCTGIRVAHLALKHRQGKNHKMRIIAFVGSPVEDNEKDLVKLAKRLKKEKVNVDIINFGEEEVNTEKLTAFVNTLNGKDGTGSHLVTVPPGPSLADALISSPILAGEGGAMLGLGASDFEFGVDPSADPELALALRVSMEEQRQRQEEEARRAAAASAAEAGIATPGTEDSDDALLKMTINQQEFGRPGLPDLSSMTEEEQIAYAMQMSLQGTEFSQESADMDASSAMDTSDPVKEEDDYDVMQDPEFLQSVLENLPGVDPNNAAIRSVMGALASQATKDGKNDKKEEEKK",
    "ISRIB and DYT Parallel Direction": "YES"
  }
]
